- Test system: L1210 leukemia cells
- procedureText: Growth inhibition against L1210 leukemia cells in vitro
- Type: cell-based
- assaySetup: Mus musculus, L1210, read-out: IC50, treatment time 8 hr
- Description: In addition to the B16 melanoma cell assay summarized in Table I, compounds 1a-e, 5 and 7 were evaluated for growth inhibitory activity against L1210 leukemia cells. […] The cells were spun down, resuspended in fresh drug-free medium, and returned to the incubator, then counted with a Coulter Counter 48 hr after treatment with the compound. […]
Known IC50 of a selection of compounds
Give the value, in units of nM, as a plain number.

* CC1CC(C)(C)NC(CCOP(=O)(OC[C@H]2O[C@@H](n3cc(F)c(=O)[nH]c3=O)C[C@@H]2O)N2CCOCC2)O1 (stereo partly shown) | 5000

Notebook: Cc1cn([C@H]2C[C@H](O)[C@@H](COP(=O)(OCCC3NC(C)(C)CC(C)O3)N(C)CCBr)O2)c(=O)[nH]c1=O (stereo partly shown) , IC50 read as 10500

Looking up Cc1ccc(S(=O)(=O)OCCN(C)P(=O)(OCCC2NC(C)(C)CC(C)O2)OC[C@H]2O[C@@H](n3cc(F)c(=O)[nH]c3=O)C[C@@H]2O)cc1 (stereo partly shown) , I found its IC50 recorded as 60

For reference, reported IC50 for CC1CC(C)(C)NC(CCOP(=O)(OC[C@H]2O[C@@H](n3cc(F)c(=O)[nH]c3=O)C[C@@H]2O)N(C)CCBr)O1 (stereo partly shown) stands at 50

Given item CC1CC(C)(C)NC(CCOP(=O)(OC[C@H]2O[C@@H](n3ccc(=O)[nH]c3=O)C[C@@H]2O)N(C)CCBr)O1 (stereo partly shown) , the value recorded as its IC50 is 8200

Reported IC50 ( CC1CC(C)(C)NC(CCOP(=O)(OC[C@H]2O[C@@H](n3cc(F)c(=O)[nH]c3=O)C[C@@H]2O)N(C)CCCl)O1 (stereo partly shown) ) = 160

IC50 measured on CC1CC(C)(C)NC(CCOP(=O)(OC[C@H]2O[C@@H](n3cc(F)c(=O)[nH]c3=O)C[C@@H]2O)N(C)CCI)O1 (stereo partly shown) = 75

====

IC50 by entry:
- Tested on: L1210 leukemia cells
- procedureText: Growth inhibition against L1210 leukemia cells in vitro
- Format: cell-based
- assaySetup: Mus musculus, L1210, read-out: IC50, treatment time 2 hr
Give a bare numeral; the unit nM is implied.

- CC1CC(C)(C)NC(CCOP(=O)(OC[C@H]2O[C@@H](n3cc(F)c(=O)[nH]c3=O)C[C@@H]2O)N(C)CCBr)O1 (stereo partly shown): 120
- CC1CC(C)(C)NC(CCOP(=O)(OC[C@H]2O[C@@H](n3cc(F)c(=O)[nH]c3=O)C[C@@H]2O)N(C)CCI)O1 (stereo partly shown): 190
- CC1CC(C)(C)NC(CCOP(=O)(OC[C@H]2O[C@@H](n3cc(F)c(=O)[nH]c3=O)C[C@@H]2O)N2CCOCC2)O1 (stereo partly shown): 15000

Item: Cc1ccc(S(=O)(=O)OCCN(C)P(=O)(OCCC2NC(C)(C)CC(C)O2)OC[C@H]2O[C@@H](n3cc(F)c(=O)[nH]c3=O)C[C@@H]2O)cc1 (stereo partly shown) | IC50: 160

====

- System: L1210 leukemia cells
- procedureText: Growth inhibition against L1210 leukemia cells in vitro
- Type: cell-based
- assaySetup: Mus musculus, L1210, read-out: IC50, treatment time 2 hr
IC50 values by entry
Please state the figure in µM; there is no need to write the unit.

Entry under test: CC1CC(C)(C)NC(CCOP(=O)(OC[C@H]2O[C@@H](n3ccc(=O)[nH]c3=O)C[C@@H]2O)N(C)CCBr)O1 (stereo partly drawn) . Its IC50 was 20

Field IC50 (entry Cc1cn([C@H]2C[C@H](O)[C@@H](COP(=O)(OCCC3NC(C)(C)CC(C)O3)N(C)CCBr)O2)c(=O)[nH]c1=O (stereo partly drawn) ) reads 13

Record CC1CC(C)(C)NC(CCOP(=O)(OC[C@H]2O[C@@H](n3cc(F)c(=O)[nH]c3=O)C[C@@H]2O)N(C)CCCl)O1 (stereo partly drawn) . Reported IC50: 0.3

====

- System: L1210 leukemia cells
- procedureText: Growth inhibition against L1210 leukemia cells in vitro
- Type: cell-based
- assaySetup: Mus musculus, L1210; 24 hr treatment; counted 48 hr after start of treatment; average of at least two experiments; read-out: IC50, treatment time 24 hr
outcomeMeasure: pIC50
Would you please state pIC50, meaning minus log10 of the concentration in mol/L, as a bare number?

// sample O=c1[nH]cc(F)c(=O)[nH]1 [5-Fluorouracil, reference compound] , its pIC50 was 6.66

Source: patent US5233031A
